B1: LINE1-full (parent)
chain: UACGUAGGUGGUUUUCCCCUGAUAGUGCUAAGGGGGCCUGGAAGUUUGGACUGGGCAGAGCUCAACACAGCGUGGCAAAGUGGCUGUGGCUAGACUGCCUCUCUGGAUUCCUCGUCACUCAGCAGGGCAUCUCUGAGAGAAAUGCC

variants of: B1; experiment: self-cleavage, relative activity (ratio to wild type); higher = more cleavage; in vitro, sequencing; the parent is a self-cleaving ribozyme
Reported self-cleavage maps to class as: bottom end: < 0.5; midrange: ≥ 0.5 and < 1; top end: ≥ 1

Previously resolved entries follow.
{"Variant Descriptor": "A6C G35A", "Label Class": "top end"}
{"Variant Descriptor": "A43G A141U", "Label Class": "top end"}
{"Variant Descriptor": "A6C U45C", "Label Class": "top end"}
{"Variant Descriptor": "C38U A136U", "Label Class": "top end"}
{"Variant Descriptor": "C123A A129U", "Label Class": "top end"}
{"Variant Descriptor": "C63U A69G", "Label Class": "bottom end"}
{"Variant Descriptor": "C84U A124U", "Label Class": "bottom end"}
{"Variant Descriptor": "U9G U100A", "Label Class": "midrange"}

Exercise: State the band of U45C A57G
Solution: midrange

Exercise: State the band of A31U A142G
Solution: midrange

Exercise: State the band of U39C U109C
Solution: top end

Exercise: State the band of A2U A65U
Solution: bottom end

Exercise: State the band of A42U A67G
Solution: bottom end

Exercise: State the band of U46C A65U
Solution: bottom end
